Species: Rattus norvegicus
Assay: Open TG-GATES - Regimen: Single
Assay type: toxicity, organism-based, Sprague-Dawley
Design: regimen Single, gender Male, age 6 weeks
Conditions: in vivo, po, 0 mg/kg, 3 h, tissue Blood, route gavage, dose level Control
parameter: PT (s)
Return type: number; implicit unit s.

Query: Item under review: CC(C)C(=O)Nc1ccc([N+](=O)[O-])c(C(F)(F)F)c1 [FLUTAMIDE] . Reported PT?
Reply: 12.7

Query: Queued: O=C(N[C@H](CO)[C@H](O)c1ccc([N+](=O)[O-])cc1)C(Cl)Cl
Reply: 14.3

Query: Queued: CN1C(=O)OC(C)(C)C1=O
Reply: 13.8

Query: Queued: C#C[C@]1(O)CC[C@H]2[C@@H]3CCc4cc(O)ccc4[C@H]3CC[C@@]21C
Reply: 12.2

Query: Queued: O=C(O)c1cccnc1
Reply: 16.4

Query: Queued: CC(=N)S [THIOACETAMIDE]
Reply: 12

Query: Queued: Oc1ncnc2[nH]ncc12
Reply: 12.3

Cited source for all entries: ChEMBL document CHEMBL3885861
